Cited source for all entries: patent US10941132B2

List of IC50 values.
- testedSystem: recombinant rat mGluR5 (Rattus norvegicus, UniProt P31424)
- Construct: expressed in transfected cells
- Sequence (P31424 21-1203): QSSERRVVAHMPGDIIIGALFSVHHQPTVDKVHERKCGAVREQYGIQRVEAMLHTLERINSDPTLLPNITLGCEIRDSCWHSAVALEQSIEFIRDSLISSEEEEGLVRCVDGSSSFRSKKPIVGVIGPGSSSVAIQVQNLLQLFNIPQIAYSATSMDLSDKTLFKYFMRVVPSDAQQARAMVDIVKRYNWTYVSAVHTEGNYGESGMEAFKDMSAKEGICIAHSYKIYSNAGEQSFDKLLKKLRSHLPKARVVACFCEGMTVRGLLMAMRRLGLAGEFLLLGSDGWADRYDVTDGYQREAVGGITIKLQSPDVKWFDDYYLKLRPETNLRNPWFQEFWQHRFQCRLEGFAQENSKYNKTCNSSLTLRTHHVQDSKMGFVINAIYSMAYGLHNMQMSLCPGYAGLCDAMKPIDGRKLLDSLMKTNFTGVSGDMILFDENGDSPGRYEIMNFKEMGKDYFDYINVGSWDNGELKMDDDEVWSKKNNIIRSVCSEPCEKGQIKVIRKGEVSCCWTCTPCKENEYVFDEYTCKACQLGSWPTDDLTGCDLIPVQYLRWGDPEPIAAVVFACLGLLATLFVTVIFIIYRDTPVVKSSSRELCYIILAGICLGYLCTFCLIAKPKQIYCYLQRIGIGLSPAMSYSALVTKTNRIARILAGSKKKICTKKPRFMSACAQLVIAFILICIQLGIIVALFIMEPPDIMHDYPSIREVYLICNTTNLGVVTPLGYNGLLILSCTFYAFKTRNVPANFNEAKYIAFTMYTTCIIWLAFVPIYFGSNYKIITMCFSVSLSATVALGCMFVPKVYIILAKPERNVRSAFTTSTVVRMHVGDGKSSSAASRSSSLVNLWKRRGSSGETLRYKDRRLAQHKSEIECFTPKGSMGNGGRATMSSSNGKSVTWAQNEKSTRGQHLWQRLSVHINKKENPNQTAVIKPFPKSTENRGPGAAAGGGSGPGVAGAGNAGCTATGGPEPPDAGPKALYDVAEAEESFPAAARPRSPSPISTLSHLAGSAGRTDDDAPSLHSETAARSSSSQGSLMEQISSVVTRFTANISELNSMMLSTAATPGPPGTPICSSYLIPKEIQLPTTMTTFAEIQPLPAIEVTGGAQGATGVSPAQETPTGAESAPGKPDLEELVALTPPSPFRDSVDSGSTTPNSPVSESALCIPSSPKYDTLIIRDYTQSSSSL
- method: Functional calcium flux assay (FLIPR), antagonist evaluation against glutamate-evoked [Ca2+]i increase
- Assay type: cell-based
- testSettings: Table 1; HEK293 cells stably expressing recombinant rat mGluR5; 15 min incubation of test compound, then submaximal glutamate; read-out: IC50 value (FLIPR assay)

Some solved cases for reference:
CN(C)CCOc1nn(-c2cc(F)cc(C#N)c2)cc1C#Cc1ccccn1 | 1000 to 5000 nM
Fc1ccc(-n2cc(C#Cc3ccccn3)c(OC(F)F)n2)nc1 | ≤ 500 nM
Fc1ccc(-n2cc(C#Cc3ccccn3)cn2)cc1 | ≤ 500 nM
Fc1ccc(-n2cc(C#Cc3cccc(Cl)c3)cn2)cc1 | ≤ 500 nM
CS(=O)(=O)c1ccc(-n2cc(C#Cc3ccccn3)cn2)cc1 | 500 to 1000 nM
N#Cc1cc(F)cc(-n2cc(C#Cc3ncccn3)c(Cl)n2)c1 | ≤ 500 nM
Fc1ccc(-n2ncc(C#Cc3ccccn3)c2Cl)cn1 | ≤ 500 nM
Fc1ccc(-n2cc(C#Cc3cccnc3)cn2)cc1 | ≤ 500 nM

[Q] Requested field: IC50. Item: `Cc1c(C#Cc2ccccn2)c(OC(F)F)nn1-c1cc(F)cc(C#N)c1`
[A] ≤ 500 nM

[Q] Requested field: IC50. Item: `COc1nn(-c2ccc(OC(F)(F)F)cc2)c(C)c1C#Cc1ccccn1`
[A] ≤ 500 nM

[Q] Requested field: IC50. Item: `FC(F)(F)Oc1ccc(-n2cc(C#Cc3ccccn3)cn2)cc1`
[A] ≤ 500 nM

[Q] Requested field: IC50. Item: `Cc1nn(-c2ccc(F)cc2)c(C(F)(F)F)c1C#Cc1ccccn1`
[A] ≤ 500 nM

[Q] Requested field: IC50. Item: `Fc1cncc(-n2cc(C#Cc3ncccn3)c(Cl)n2)c1`
[A] 1000 to 5000 nM

###

- testedSystem: recombinant rat mGluR5 (Rattus norvegicus)
- Construct: expressed in transfected cells
- method: Functional calcium flux assay (FLIPR), antagonist evaluation against glutamate-evoked [Ca2+]i increase
- Format: cell-based
- testSettings: Table 2; HEK293 cells stably expressing recombinant rat mGluR5; 15 min incubation of test compound, then submaximal glutamate; read-out: IC50 (FLIPR assay)
pIC50: −log10 of the molar value.
propertyName: pIC50

Some solved cases for reference:
Fc1ccc(-n2cc(Cl)c(C#Cc3ccccn3)n2)nc1 | 6.00 to 6.30
Cc1cc(C#Cc2ccnc(Cl)c2)nn1-c1cc(F)cc(C#N)c1 | ≥ 6.30
Fc1ccc(-n2ccc(C#Cc3ccccc3)n2)cc1 | 5.30 to 6.00
Cc1cc(C#Cc2ccnc(Cl)c2)nn1-c1ccc(F)cc1 | ≥ 6.30
N#Cc1cc(F)cc(-n2ccc(C#Cc3cccnc3)n2)c1 | 5.30 to 6.00
Cc1cc(C#Cc2cccnc2)nn1-c1cc(F)cc(C#N)c1 | ≥ 6.30
Fc1ccc(-n2ccc(C#Cc3cccc(Cl)c3)n2)cc1 | 6.00 to 6.30
Cc1cc(C#Cc2cnccn2)nn1-c1ccc(F)cc1 | 5.30 to 6.00
N#Cc1cc(F)cc(-n2ccc(C#Cc3cccc(Cl)c3)n2)c1 | ≥ 6.30
Fc1cncc(-n2ccc(C#Cc3ccccn3)n2)c1 | ≥ 6.30

[Q] Requested field: pIC50. Item: `Cc1cc(C#Cc2cnccn2)nn1-c1ccc(OC(F)(F)F)cc1`
[A] 5.30 to 6.00

[Q] Requested field: pIC50. Item: `Fc1ccc(-n2ccc(C#Cc3ccccn3)n2)cc1`
[A] ≥ 6.30

[Q] Requested field: pIC50. Item: `Cc1cc(C#Cc2ccccc2)nn1-c1cc(F)cc(C#N)c1`
[A] ≥ 6.30
